Origin of values: patent US20060263802A1

Record form. Attribute: Binding of CR57 to linear peptide (PEPSCAN-ELISA signal). Fill in for each entry.
- System: human monoclonal antibody CR57
- Assay type: binding
Reply with the value as a number alone.

Binding of CR57 to linear peptide (PEPSCAN-ELISA signal) lookup needed for `GKRASKGSETCGFVD` , thanks.
92

Binding of CR57 to linear peptide (PEPSCAN-ELISA signal) lookup needed for `TCTGVVTEAENYTNF` , thanks.
92

Binding of CR57 to linear peptide (PEPSCAN-ELISA signal) lookup needed for `RGLYKSLKGACKLKL` , thanks.
90

Binding of CR57 to linear peptide (PEPSCAN-ELISA signal) lookup needed for `ESLHNPYPDYRWLRT` , thanks.
92

Binding of CR57 to linear peptide (PEPSCAN-ELISA signal) lookup needed for `TTFKRKHFRPTPDAC` , thanks.
74

Binding of CR57 to linear peptide (PEPSCAN-ELISA signal) lookup needed for `CSGVAVSSTYCSTNH` , thanks.
110

Binding of CR57 to linear peptide (PEPSCAN-ELISA signal) lookup needed for `TIFNKTLMEADAHYK` , thanks.
107

Binding of CR57 to linear peptide (PEPSCAN-ELISA signal) lookup needed for `KTLMEADAHYKSVRT` , thanks.
91

Binding of CR57 to linear peptide (PEPSCAN-ELISA signal) lookup needed for `WNEILPSKGCLRVGG` , thanks.
102

Binding of CR57 to linear peptide (PEPSCAN-ELISA signal) lookup needed for `KHFRPTPDACRAAYN` , thanks.
73

Binding of CR57 to linear peptide (PEPSCAN-ELISA signal) lookup needed for `DQLVNLHDFRSDEIE` , thanks.
54

Binding of CR57 to linear peptide (PEPSCAN-ELISA signal) lookup needed for `VRKREECLDALESIM` , thanks.
58

Binding of CR57 to linear peptide (PEPSCAN-ELISA signal) lookup needed for `YKSLKGACKLKLCGV` , thanks.
80

Binding of CR57 to linear peptide (PEPSCAN-ELISA signal) lookup needed for `GPDGNVLIPEMQSSL` , thanks.
86

Binding of CR57 to linear peptide (PEPSCAN-ELISA signal) lookup needed for `FNGIILGPDGNVLIP` , thanks.
61

Binding of CR57 to linear peptide (PEPSCAN-ELISA signal) lookup needed for `EAENYTNFVGYVTTT` , thanks.
69

Binding of CR57 to linear peptide (PEPSCAN-ELISA signal) lookup needed for `SNETKWCPPDQLVNL` , thanks.
99

Binding of CR57 to linear peptide (PEPSCAN-ELISA signal) lookup needed for `VKTTKESLVIISPSV` , thanks.
71

Binding of CR57 to linear peptide (PEPSCAN-ELISA signal) lookup needed for `LAIKMNGFTCTGVVT` , thanks.
68

Binding of CR57 to linear peptide (PEPSCAN-ELISA signal) lookup needed for `LSHLRKLVPGFGKAY` , thanks.
96

Binding of CR57 to linear peptide (PEPSCAN-ELISA signal) lookup needed for `RTVKTTKESLVIISP` , thanks.
82

Binding of CR57 to linear peptide (PEPSCAN-ELISA signal) lookup needed for `VLIPEMQSSLLQQHM` , thanks.
92

Binding of CR57 to linear peptide (PEPSCAN-ELISA signal) lookup needed for `NFVGYVTTTFKRKHF` , thanks.
65

Binding of CR57 to linear peptide (PEPSCAN-ELISA signal) lookup needed for `DPYDRSLHSRVFPSG` , thanks.
90

Binding of CR57 to linear peptide (PEPSCAN-ELISA signal) lookup needed for `IPLVHPLADPSTVFK` , thanks.
96

Binding of CR57 to linear peptide (PEPSCAN-ELISA signal) lookup needed for `RSLHSRVFPSGKCSG` , thanks.
87

Binding of CR57 to linear peptide (PEPSCAN-ELISA signal) lookup needed for `FKRKHFRPTPDACRA` , thanks.
64

Binding of CR57 to linear peptide (PEPSCAN-ELISA signal) lookup needed for `SVADLDPYDRSLHSR` , thanks.
49

Binding of CR57 to linear peptide (PEPSCAN-ELISA signal) lookup needed for `NSRGKRASKGSETCG` , thanks.
92

Binding of CR57 to linear peptide (PEPSCAN-ELISA signal) lookup needed for `YTIWMPENPRLGMSC` , thanks.
97

Binding of CR57 to linear peptide (PEPSCAN-ELISA signal) lookup needed for `LVHPLADPSTVFKDG` , thanks.
164

Binding of CR57 to linear peptide (PEPSCAN-ELISA signal) lookup needed for `DALESIMTTKSVSFR` , thanks.
104

Binding of CR57 to linear peptide (PEPSCAN-ELISA signal) lookup needed for `EADAHYKSVRTWNEI` , thanks.
58

Binding of CR57 to linear peptide (PEPSCAN-ELISA signal) lookup needed for `ELVRKREECLDALES` , thanks.
82

Binding of CR57 to linear peptide (PEPSCAN-ELISA signal) lookup needed for `TILDKLGPWSPIDIH` , thanks.
76

Binding of CR57 to linear peptide (PEPSCAN-ELISA signal) lookup needed for `NLSGFSYMELKVGYI` , thanks.
61

Binding of CR57 to linear peptide (PEPSCAN-ELISA signal) lookup needed for `YCSTNHDYTIWMPEN` , thanks.
47

Binding of CR57 to linear peptide (PEPSCAN-ELISA signal) lookup needed for `VGYVTTTFKRKHFRP` , thanks.
75

Binding of CR57 to linear peptide (PEPSCAN-ELISA signal) lookup needed for `STYCSTNHDYTIWMP` , thanks.
86

Binding of CR57 to linear peptide (PEPSCAN-ELISA signal) lookup needed for `MNGFTCTGVVTEAEN` , thanks.
69

Binding of CR57 to linear peptide (PEPSCAN-ELISA signal) lookup needed for `RPTPDACRAAYNWKM` , thanks.
77

Binding of CR57 to linear peptide (PEPSCAN-ELISA signal) lookup needed for `YVTTTFKRKHFRPTP` , thanks.
85

Binding of CR57 to linear peptide (PEPSCAN-ELISA signal) lookup needed for `PTPDACRAAYNWKMA` , thanks.
99

Binding of CR57 to linear peptide (PEPSCAN-ELISA signal) lookup needed for `TTTFKRKHFRPTPDA` , thanks.
80

Binding of CR57 to linear peptide (PEPSCAN-ELISA signal) lookup needed for `LRTVKTTKESLVIIS` , thanks.
65

Binding of CR57 to linear peptide (PEPSCAN-ELISA signal) lookup needed for `DIHHLSCPNNLVVED` , thanks.
38

Binding of CR57 to linear peptide (PEPSCAN-ELISA signal) lookup needed for `EDEGCTNLSGFSYME` , thanks.
54

Binding of CR57 to linear peptide (PEPSCAN-ELISA signal) lookup needed for `GLRLMDGTWVAMQTS` , thanks.
104

Binding of CR57 to linear peptide (PEPSCAN-ELISA signal) lookup needed for `TVKTTKESLVIISPS` , thanks.
76

Binding of CR57 to linear peptide (PEPSCAN-ELISA signal) lookup needed for `GKCSGVAVSSTYCST` , thanks.
92

Binding of CR57 to linear peptide (PEPSCAN-ELISA signal) lookup needed for `RLGMSCDIFTNSRGK` , thanks.
88

Binding of CR57 to linear peptide (PEPSCAN-ELISA signal) lookup needed for `GLYKSLKGACKLKLC` , thanks.
94
